experiment-summary: chemical genetic growth profiling, strain panel (AID 1159580);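 also: tested at 20 µM; growth read once vehicle control cultures reached saturation at 30 °C; 1 = growth at the plate median or of vehicle wells; lower values mean less growth of the strain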
condition-set: S. cerevisiae deletion strains, growth OD, locus YDR334W, strain swr1, active compounds read low
Hit rate of the full screen: of about 5,500 compounds, about 2,000 (36%) were called active. About 18% were inconclusive and are not listed. The list shows a part of the results. Where a SMILES comes first, the peptide text is derived from it. Bridges are numbered along the chain shown (N, C = ends). Side-chain parts run from the residue outwards. [ ]: non-standard residue; d: D form. The star is where a group is joined. Octanoyl(6-Me) = CCC(C)CCCCC(=O)*; X1 = CCC(C)C(N)C1=NC(C(=O)*)CS1; Orn = NCCC[CH](N)C(=O)O; Dab = NCC[CH](N)C(=O)O
measurement-type: normalized growth

{"columns": ["compound", "measurement-type", "test-result"],
 "data": [
  ["CC(C)CC1NC(=O)C(CCCN)NC(=O)C(C(C)C)NC(=O)C2CCCN2C(=O)C(Cc2ccccc2)NC(=O)C(CC(C)C)NC(=O)C(CCCN)NC(=O)C(C(C)C)NC(=O)C2CCCN2C(=O)C(Cc2ccccc2)NC1=O (stereo not drawn) (cyclo(FPV[Orn]LFPV[Orn]L); configuration not given here)", "normalized growth", 1.02],
  ["CCC(C)C(N)C1=NC(C(=O)NC(CC(C)C)C(=O)NC(CCC(=O)O)C(=O)NC(C(=O)NCCCCC2NC(=O)C(CC(N)=O)NC(=O)C(CC(=O)O)NC(=O)C(Cc3cnc[nH]3)NC(=O)C(Cc3ccccc3)NC(=O)C(C(C)CC)NC(=O)C(CCCN)NC2=O)C(C)CC)CS1 (stereo not drawn) (cyclo(DNK([Ile-Glu-Leu-X1])[Orn]IFH); configuration not given here)", "normalized growth", 1.01],
  ["CCC(C)CCCCC(=O)NC(CCN)C(=O)NC(C(=O)NC(CCN)C(=O)NC1CCNC(=O)C(C(C)O)NC(=O)C(CCN)NC(=O)C(CCN)NC(=O)C(CC(C)C)NC(=O)C(Cc2ccccc2)NC(=O)C(CCN)NC1=O)C(C)O (stereo not drawn) ({Octanoyl(6-Me)}-[Dab]T[Dab][Dab][Dab]FL[Dab][Dab]T; lactam 4-C; configuration not given here)", "normalized growth", 1]
]}
